target.or.test.system: catalytic domain of human Bub1 (amino acids 704-1085) (Homo sapiens, UniProt O43683)
Construct: catalytic domain of human Bub1 (amino acids 704-1085); His6 (N); made in house; host or cells: Hi5 insect cells
Sequence (O43683 704-1085): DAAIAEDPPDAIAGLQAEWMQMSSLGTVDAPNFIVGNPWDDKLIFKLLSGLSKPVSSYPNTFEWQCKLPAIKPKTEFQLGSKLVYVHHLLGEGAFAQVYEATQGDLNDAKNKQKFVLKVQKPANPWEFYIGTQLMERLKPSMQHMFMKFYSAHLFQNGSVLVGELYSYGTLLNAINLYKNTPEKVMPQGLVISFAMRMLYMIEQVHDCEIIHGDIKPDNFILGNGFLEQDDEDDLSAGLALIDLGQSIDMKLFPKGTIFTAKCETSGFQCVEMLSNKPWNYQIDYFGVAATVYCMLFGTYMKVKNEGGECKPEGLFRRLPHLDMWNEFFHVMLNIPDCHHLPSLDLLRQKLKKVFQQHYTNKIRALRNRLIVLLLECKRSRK
assay: Bub1 kinase assay (TR-FRET)
Assay type: biochemical
condition.notes: TR-FRET; ATP 10 μM, peptide substrate 1 μM; 60 min at 22° C.; average or median if tested more than once; read-out: Inhibition of Bub1 kinase IC50
pIC50: −log10 of the molar value.
measured.endpoint: pIC50

[P] CC(=O)Nc1cc(-c2[nH]c3c(c2Nc2ccccc2)C(=O)CN(C(=O)C(C)C)C3)ccn1
[Q] CC(=O)Nc1cc(-c2[nH]c3c(c2Nc2ccccc2)C(=O)COC3)ccn1
[R] CC(=O)Nc1cc(-c2[nH]c3c(c2Nc2ccccc2)C(=O)CN(C(=O)CC(C)(C)C(F)(F)F)C3)ccn1
Take the molecules listed above and rank them by pIC50; the top slot goes to the highest value. List the labels, following the order given in the request.
P, R, Q
(P: 8.30, R: 7.66, Q: 7.22)
